experimentSummary: gradient 5% acetonitrile 3 min, to 50% in 2 min, to 85% in 15 min, held 3 min, 100 µL/min
experimentalContext: column: Zorbax Extend-C18 2.1 x 50 mm; eluents: water / acetonitrile, 0.1% formic acid
metric: RP-LC retention time (s)

Cc1ccc(CNC(=O)c2c(C)oc3nc(C)nc(N4CCOCC4)c23)cc1 :: 787
O=C1CC(C(=O)N2CCN(c3ccccc3)CC2)CN1CCc1c[nH]c2ccc(F)cc12 (centres undefined) :: 819
Cc1cc2c(cc(C(=O)NCCc3ccccc3)n2C)s1 :: 1040
O=C(Nc1ccccc1)N(Cc1cccnc1)C1CN(Cc2ccc(F)c(F)c2)C1 :: 965
O=C(NCc1ccccn1)C1CCN(C(=O)c2ncn3c2COC(c2ccccc2)C3)CC1 (centres undefined) :: 602

I = COc1ccc(Cl)cc1S(=O)(=O)N1CCc2nn(CC3CC3)c(=O)n2CC1
II = O=C(CC1CCCC1)Nc1nc(-c2cccc3ccccc23)cs1
Hi, I'm comparing I with II and wondering which one has the bigger number for RP-LC retention time. Any idea? I would appreciate it if you answered with the label of your choice. II

----------
experimentSummary: gradient 5% acetonitrile 3 min, to 50% in 2 min, to 85% in 15 min, held 3 min, 100 µL/min
experimentalContext: column: Zorbax Extend-C18 2.1 x 50 mm; eluents: water / acetonitrile, 0.1% formic acid
metric: RP-LC retention time (s)

Some solved cases for reference:
CC1(C(=O)NCc2ccccc2)CN(S(=O)(=O)c2ccccc2)CC(=O)N1C1CCCCC1 (stereo not drawn) :: 992
Cc1nnc(N2CCCC(C(=O)NCCc3ccc(Cl)cc3)C2)c2nn(-c3ccccc3)c(C)c12 (stereo not drawn) :: 784
O=C(NCCCn1nc(-c2ccc(F)cc2)ccc1=O)Nc1cc(Cl)ccc1Cl :: 566
COCCN1C(=O)CCc2cc(NS(=O)(=O)c3ccc(C)c(Cl)c3)ccc21 :: 851
O=C(CSc1nnc(Cc2ccccc2)o1)Nc1nc(-c2ccccc2)cs1 :: 936

I = O=C1CCCc2cc(S(=O)(=O)N3CCC(C(=O)NCc4ccccc4Cl)CC3)ccc2N1
II = Cn1nccc1-c1cccc(-c2noc(-c3ccc(Br)cc3)n2)c1
Hi, I'm comparing I with II and wondering which one has the bigger number for RP-LC retention time. Any idea? # respond with the chosen item's label II

I = COc1ccc(N2CC(c3noc(-c4ccc(C)c(C)c4)n3)CC2=O)cc1 (stereo not drawn)
II = O=C(NCc1ccc(Cl)cc1)NCC1(CO)CC1
Short answer wanted: higher RP-LC retention time, I or II ? Indicate your choice by writing its label. I

a = CCSc1nnc(NC(=O)c2ccc(OC)c([N+](=O)[O-])c2)s1
b = O=S(=O)(c1cc(-c2cc(C(F)(F)F)on2)cs1)N1CCN(c2ccc(Cl)cc2)CC1
When the recorded RP-LC retention time values are compared, which is smaller: that of a or that of b ? Answer = label. a
(a: 802 s, b: 1290 s)

----------
experimentSummary: gradient 5% acetonitrile 3 min, to 50% in 2 min, to 85% in 15 min, held 3 min, 100 µL/min
experimentalContext: column: Zorbax Extend-C18 2.1 x 50 mm; eluents: water / acetonitrile, 0.1% formic acid
metric: RP-LC retention time (s)

CCOc1ccc(NC(=O)N2CCC(N(C)C(C)C)CC2)cc1 :: 588
Cc1ccc(-c2cn3ccn(-c4cccc(F)c4)c(=O)c3n2)c(C)c1 :: 900

A = CCn1ccc(C(=O)N2CC(Oc3ccc(-c4nc(C)no4)cc3)C2)n1
B = CCn1cc(-c2nc(C(=O)Nc3cc(C)ccc3F)cs2)c2cccnc21
Sort A and B by RP-LC retention time descending and give the first. Identify your selection by its label. B

----------
experimentSummary: gradient 5% acetonitrile 3 min, to 50% in 2 min, to 85% in 15 min, held 3 min, 100 µL/min
experimentalContext: column: Zorbax Extend-C18 2.1 x 50 mm; eluents: water / acetonitrile, 0.1% formic acid
metric: RP-LC retention time (s)

Here are 5 compounds together with their reported answers.
CCS(=O)(=O)N(C1CC1)C1CCOC2(CCN(C(=O)c3sc(C)nc3C)CC2)C1 (stereo not given) :: 714
COc1ccc(NC(=O)N2C[C@@H](F)C[C@H]2C(=O)N2CCc3ccccc3C2)c(OC)c1 :: 790
Cc1noc(C)c1-c1ccc(S(=O)(=O)N2CCCC2)cc1 :: 951
c1ccc(-c2nnc(-c3cccnc3NCc3ccc4c(c3)OCO4)o2)cc1 :: 1160
Cc1noc(C)c1-c1ccc(S(=O)(=O)N2CCN(c3cccc(Cl)c3)CC2)cc1 :: 1160

P = COc1ccccc1-c1nc(Cc2noc(-c3ccccc3)n2)c(C)o1
Q = CC1=C(c2ccc(F)cc2)S(=O)(=O)N=C1N1CCCN(C(=O)c2ccccn2)CC1
Field: lower RP-LC retention time | Options: P / Q Respond with the label that goes with your answer. Q
(Q: 713 s, P: 1040 s)

a = COc1ccc(NC(=O)c2c(O)c3cccnc3n(-c3ccccc3)c2=O)cc1
b = N#Cc1ccccc1CN1CCC2(CCC2N2CCOCC2)CC1 (stereo not given)
Kindly compare a with b and tell me which has the lower RP-LC retention time figure. Answer = label. b
(b: 690 s, a: 1200 s)

----------
experimentSummary: gradient 5% acetonitrile 3 min, to 50% in 2 min, to 85% in 15 min, held 3 min, 100 µL/min
experimentalContext: column: Zorbax Extend-C18 2.1 x 50 mm; eluents: water / acetonitrile, 0.1% formic acid
metric: RP-LC retention time (s)

P = Cc1ccc(CNC(=O)CSc2ccc(N3CCCC(C(=O)NC4CC4)C3)nn2)cc1 (centres undefined)
Q = CC1CCN(S(=O)(=O)c2ccc(-c3nnc(C(=O)NC(C)CCc4ccccc4)o3)cc2)CC1 (centres undefined)
For this pair, P and Q , which shows a numerically higher RP-LC retention time? Pick one; state its label. Q
(Q: 1170 s, P: 643 s)

1 = O=C(NCC1CCN(C(=O)Oc2ccccc2)CC1)C(=O)Nc1ccon1
2 = CCCN1C(=O)c2cc(S(=O)(=O)N3CCCCC3CC)ccc2Oc2cccnc21 (centres undefined)
Record comparison, field RP-LC retention time: mark the lower of 1 and 2 . Pick one and reply with its label. 1

a = COCCNC(=O)c1ccc2c(c1)N(Cc1ccc(F)cc1)C(=O)CO2
b = O=C(NCCC1=CCCCC1)c1ccc(-c2nccnc2N2CCCC2)cc1
Of the two listed items, which has the higher RP-LC retention time? First: a Second: b In your reply, give the label of the chosen option. b
(b: 1030 s, a: 717 s)

----------
experimentSummary: gradient 5% acetonitrile 3 min, to 50% in 2 min, to 85% in 15 min, held 3 min, 100 µL/min
experimentalContext: column: Zorbax Extend-C18 2.1 x 50 mm; eluents: water / acetonitrile, 0.1% formic acid
metric: RP-LC retention time (s)

Worked cases, answers included:
CCOC(=O)c1cnc2nc(C)ccc2c1Nc1ccc(C)c(F)c1 :: 736
COc1ccc(NC(=O)C2CN(S(C)(=O)=O)CC23CCCCC3)c(OC)c1 (stereo not given) :: 860
O=C(NCC(=O)N1CCN(c2ncccn2)CC1)c1c[nH]c2ccccc12 :: 615

1 = Cc1c(C(=O)N2CCC(C(=O)N3CC=C(c4ccccc4)CC3)CC2)sc2nc[nH]c(=O)c12
2 = Cc1nc2cc(-c3noc(-c4cc(Cl)ccc4Cl)n3)ccc2o1
Hey, which is lower on measured RP-LC retention time, 1 or 2 ? I would appreciate it if you answered with the label of your choice. 1

----------
experimentSummary: gradient 5% acetonitrile 3 min, to 50% in 2 min, to 85% in 15 min, held 3 min, 100 µL/min
experimentalContext: column: Zorbax Extend-C18 2.1 x 50 mm; eluents: water / acetonitrile, 0.1% formic acid
metric: RP-LC retention time (s)

Record excerpt, results attached:
Cc1oc(-c2[nH]ncc2C(=O)N2CCOCC2)cc1S(=O)(=O)NCC1CCCCC1 :: 742
Cc1ccc2nc(C)cc(C(=O)NC3CCCC3)c2c1 :: 610
CC(C)n1nc(-c2ccc3oc(N)nc3c2)c2c(N)ncnc21 :: 628
CN(CCNC(=O)CCCn1c2ccccc2c2cnn(C)c(=O)c21)Cc1ccccc1 :: 652
COc1cc(Cl)ccc1C(=O)N1CCc2nc[nH]c2C1 :: 593
O=C(Nc1nccs1)c1cc2cc([N+](=O)[O-])ccc2s1 :: 821
Cc1cc(N2CCOCC2)nc(N2CCN(C(=O)c3ccccc3Br)CC2)n1 :: 612
CCN(CC)S(=O)(=O)c1cccc(-c2nnc(-c3ccccc3Br)o2)c1 :: 1100

A = CCOc1ccc(C2c3[nH]c4ccccc4c3CCN2C(=O)c2ccnn2C)cc1 (stereo not given)
B = Cc1cccc(C)c1NC(=O)CSC1=Nc2ccccc2N=C(c2ccccc2)C1
Lower value for measured RP-LC retention time? Options: A , B Respond using the label that marks the chosen record. A
(A: 678 s, B: 1100 s)
